Origin of the recorded values: ChEMBL document CHEMBL1201862

Tested on: SF-539
Assay: NCI tumour cell line growth inhibition, 48 h
Active and inactive are the calls of the source. No stated cut-off is given here; in the data, active = GI50 up to about 1.1 µM and inactive = higher.
Outcome codes: active, inactive

Compound	Discrete label
C#Cc1ccccc1C(=O)OC	inactive
c1ccc2c3c([nH]c2c1)C1c2[nH]c4ccccc4c2CCN1CC3	inactive
NC(=O)N1N=C2c3ccccc3CC[C@@H]2C1c1ccccc1 (stereo partly specified)	inactive
COc1ccc2c(c1)C1OCCNC1CC2 (stereo unspecified)	inactive
O=C(/C=C/c1ccccc1)c1ccccc1	inactive
O=C(Nc1cccc([N+](=O)[O-])c1)c1nnn(-c2cccc([N+](=O)[O-])c2)c1O	active
CCOC(=O)/C(Br)=C1/OC(=O)c2ccccc2-c2ccccc21.CCOC(=O)/C(Br)=C1\OC(=O)c2ccccc2-c2ccccc21	inactive
CC(=O)N/N=C1\CC(C)(C)C2CCC1C2 (stereo unspecified)	inactive
O=C(N/N=C/c1ccc(O)cc1)NNCCO	inactive
Cc1cccc(-c2cc(=S)c3cc(N4CCCC4)ccc3[nH]2)c1	inactive
Cc1cccc(/C=N/C23CC4CC(CC(C4)C2)C3)c1	inactive
CCN(CC)c1ccc(/C=C/c2ccnc3ccccc23)cc1	inactive
CN1CCC/C1=N\C#N	inactive
Cc1c(N)nc(C2CC(=O)N2CC(N)C(N)=O)nc1C(=O)NC(C(=O)NC(C)C(O)C(C)C(=O)NC(C(=O)NCCc1nc(-c2nc(C(=O)NCCNCC(C)O)cs2)cs1)C(C)O)C(OC1OC(CO)C(O)C(O)C1OC1OC(CO)C(O)C(OC(N)=O)C1O)c1c[nH]cn1 (stereo unspecified)	active
COc1cccc(C2=NC(C(C)C)CO2)c1 (stereo unspecified)	inactive
C[O+]=C1C=CC(=C2SC(c3ccccc3)(c3ccccc3)c3ccccc32)C=C1.[O-][Cl+3]([O-])([O-])[O-]	inactive
COc1cc(C2c3cc4c(cc3[C@@H](NCCN(C)C)C3COC(=O)[C@H]23)OCO4)cc(OC)c1O (stereo partly specified)	active
COc1cc([C@@H]2OC[C@@H]3C(c4cc(OC)c5c(c4)OCO5)OC[C@@H]32)cc(OC)c1OC (stereo partly specified)	inactive
COc1ccc(C2CC(C)=Nc3c(O)nc(S)nc3N2)cc1 (stereo unspecified)	inactive
O=NN1C(c2ccccc2)C2CCCC(C2=O)C1c1ccccc1 (stereo unspecified)	inactive
COc1cc2c3c(cc(Cl)nc3c1OC)C(=O)C(=O)N2	inactive
